# ASSAY_PROTOCOL: protein stability index of a GFP-peptide fusion (yeast GPS) (PSI 1-4); higher = more stable; sorted into four equal gates, so the index is relative within each strain
# ASSAY_SETUP: ubr1∆
ENDPOINT_LABEL: protein stability index
Numbers only.

> print(dat)
               sequence.text  observed.result
1  NYASVYPVVEVERGRVG [RRP43]             3.42

Would you mind listing protein stability index for each of the following sequences?
1. ITPSAMKLVPSIPPATI [RPB5]
2. NYYSNKSNSTGNISSST [REC8]

Output:
[2.5, 3.09]

Return reported protein stability index values for all items listed beneath this line.
1. FIGRLPIMLRSKNCYLS [RPB2]
2. PESIDTILSSKLSNIWM [SRB2]
3. VPVRSFKGHSHIVQDCT [ASC1]
4. WREIIEKVRDYENSISK [IRR1]
5. NRAARDRRAQRVAEKRD [RPL19A]
6. ARGMTSKPAGFMKKLRA [RPS15]

Output:
[1.19, 2.91, 2.83, 2.67, 3.19, 3.6]

====

# ASSAY_PROTOCOL: protein stability index of a GFP-peptide fusion (yeast GPS) (PSI 1-4); higher = more stable; sorted into four equal gates, so the index is relative within each strain
# ASSAY_SETUP: san1∆
Assign Satisfied whenever protein stability index does not fall below 3; assign Not satisfied whenever it does.

Some solved cases for reference:
> print(dat)
                sequence.text  category.label
1    GDPFDYKAQADTFYMNV [RPB3]       Satisfied
2    LDDLVVLKKKNIQKKQP [RRP6]   Not satisfied
3   LMKCCHEAYSIIEKITD [RRP45]   Not satisfied
4    PTSVKLLKTTVPIVSKK [POP3]   Not satisfied
5  ARQFGYVILTTSAGIMD [RPS22A]   Not satisfied
6   ATNANATTDQEGDIHLE [PRE10]       Satisfied

Task: Assess whether reported protein stability index for VTADTVILFDSDWNPQA [ISW2] sits at 3 or higher.
Output: Not satisfied

Task: Dear colleague, could you confirm whether LNLTGPKVPEDIYKSHL [RPN1] has protein stability index at or above 3?
Output: Not satisfied

Task: Evaluate QQPTASDNIASLQYINI [SMD1] : protein stability index at minimum 3?
Output: Satisfied

Task: Decide: protein stability index of VLMGKNTMVRRAIRGFL [RPP0] >= 3?
Output: Satisfied

====

Could you please report measured protein stability index for the items listed next?
# ASSAY_PROTOCOL: protein stability index of a GFP-peptide fusion (yeast GPS) (PSI 1-4); higher = more stable; sorted into four equal gates, so the index is relative within each strain
# ASSAY_SETUP: pdr5∆
Answers are plain numbers.

> print(dat)
               sequence.text           endpoint.label  observed.result
1   YLMTYPQQPMVKTKTIE [RET1]  protein stability index             1.69
2  NINFASGVKNDILQSLS [CDC53]  protein stability index             2.39
3  FYMKKDAVEGVSECIIL [RPO31]  protein stability index             3.07
4   VRSLLEVVQTGAKNIEI [PRE6]  protein stability index             3.29
5   NYNSTSRSTEKKNDMNT [SIR4]  protein stability index             2.48
6  LLTVTPGPRLLYENIAS [RPN10]  protein stability index             1.92

Take each entry in turn and give its protein stability index.
1. PKNSKTPQSKGFVRNSF [RPO31]
2. LNELHPTLPTNHNKTKL [PRP8]
3. LIRNVGTNTYRLGEWSK [POP1]
4. LSQSSSYLETLTALGKE [MED2]
5. VMKDIYKVENVTLYWNN [ESC2]
6. DTIDNVKSKIQDKEGIP [RPS31]
7. NSQVFGVARIYASFNDT [RPS14B]

Output:
1: 3.03; 2: 3.08; 3: 1.29; 4: 3.04; 5: 1.62; 6: 3.46; 7: 2.45

Can you give me protein stability index for all of these, one by one?
1. NEDENIQLIKILNSHFD [YJL041W/NSP1]
2. GQLISLLFEDLFKKFNN [RET1]
3. TPFSFGTANNNSNTTNQ [YJL041W/NSP1]
4. NGDKKVDIYSLPLISTD [YMR129W/POM152]
5. NSGNSNSNSNQQSTDAD [RPT1]
6. YQCAMGKQAIGAIAYNQ [RET1]
7. ESLYEPNLEPEDLFETI [PUP3]
8. APLFKKNSSRPMPPIRG [SMD3]

Output:
2.98
3.22
3.21
2.76
2.48
2.76
3.09
2.29
